# assayOverview: Tissue distribution of SGC003F in rats with or without tariquidar
# Type: in vivo
# conditionLabel: male, SD, rat, brain, oral, SGC003F p.o. 1 mg/kg, with tariquidar p.o. 15 mg/kg, read-out: KP2, Brain
measure: Kp
Reply with the value as a number alone.

Asked: For the compound COC(=O)Nc1c(N)nc(-c2nn(Cc3sccc3F)c3ncc(F)cc23)nc1N [SGC003F] , what Kp is on record?
Given back: 0.004

---

# assayOverview: Plasma pharmacokinetics of SGC003F in rats with or without tariquidar
# Type: in vivo, rat
# conditionLabel: male, Sprague-Dawley, rat, plasma, iv, 1 mg/kg, rat plasma, SGC003F i.v. 1 mg/kg, with tariquidar p.o. 15 mg/kg
measure: AUC(0-t) (ng·h/mL)
Only the number, expressed in ng·h/mL, is required.

Asked: State the recorded AUC(0-t) for this entry: COC(=O)Nc1c(N)nc(-c2nn(Cc3sccc3F)c3ncc(F)cc23)nc1N [SGC003F]
Given back: 11300

---

# assayOverview: Tissue distribution of SGC003F in rats with or without tariquidar
# Type: in vivo
# conditionLabel: male, SD, rat, kidney, po, 1 mg/kg, SGC003F p.o. 1 mg/kg, single, read-out: AUC(0–24h), Kidney
measure: AUC(0-t) (ng·h/mL)
Entry rule: numbers only, all in ng·h/mL.

Asked: Can you share its AUC(0-t)? I mean this compound: COC(=O)Nc1c(N)nc(-c2nn(Cc3sccc3F)c3ncc(F)cc23)nc1N [SGC003F]
Given back: 5990

---

# assayOverview: Tissue distribution of SGC003F in rats with or without tariquidar
# Type: in vivo
# conditionLabel: male, SD, rat, heart, oral, SGC003F p.o. 1 mg/kg, with tariquidar i.v. 7.5 mg/kg, read-out: KP2, Heart
measure: Kp

Asked: Any idea what its Kp is? The compound is COC(=O)Nc1c(N)nc(-c2nn(Cc3sccc3F)c3ncc(F)cc23)nc1N [SGC003F]
Given back: 0.4

---

# assayOverview: Plasma pharmacokinetics of SGC003F in rats with or without tariquidar
# Format: in vivo, rat
# conditionLabel: male, Sprague-Dawley, rat, plasma, iv, 1 mg/kg, rat, SGC003F i.v. 1 mg/kg, with tariquidar i.v. 7.5 mg/kg; read-out: Vss
# Procedure: Adult Sprague Dawley rats (230–280 g) were obtained from Beijing Vital River Laboratory Animal Technology Co., Ltd. (Beijing, China). […] The main pharmacokinetic parameters, such as time to peak (tmax), half-life (t1/2), peak concentration (Cmax), and area under the curve (AUC), bioavailability (F), were calculated using a non-compartmental model with WinNonlin 8.1 software (Princeton, NJ, USA). […]
measure: Vd (L/kg)
Answer in L/kg, number only, no unit symbol.

Asked: Value lookup for Vd; key = COC(=O)Nc1c(N)nc(-c2nn(Cc3sccc3F)c3ncc(F)cc23)nc1N [SGC003F]
Given back: 0.422

---

# assayOverview: Tissue distribution of SGC003F in rats with or without tariquidar
# Format: in vivo
# conditionLabel: male, SD, rat, small intestine, po, 1 mg/kg, SGC003F p.o. 1 mg/kg, with tariquidar p.o. 15 mg/kg, read-out: AUC(0–24h), Intestine
measure: AUC(0-t) (ng·h/mL)
Only the number, expressed in ng·h/mL, is required.

Asked: Given COC(=O)Nc1c(N)nc(-c2nn(Cc3sccc3F)c3ncc(F)cc23)nc1N [SGC003F] , state its recorded AUC(0-t).
Given back: 10400
